B1: HDV Ribozyme (parent)
chain: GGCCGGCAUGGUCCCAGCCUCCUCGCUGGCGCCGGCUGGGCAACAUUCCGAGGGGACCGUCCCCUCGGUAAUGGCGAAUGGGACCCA

# Variants of: B1
# Assay Comment: self-cleavage, relative activity (ratio to wild type); higher = more cleavage; co-transcriptional
// reported self-cleavage per item
Provide a numeric answer; units are not to be included.

Worked examples follow.
mutation_id="G6C G67C" readout_number=0.192
mutation_id="C22G A56C" readout_number=0
mutation_id="U65A A70G" readout_number=1.05
mutation_id="U37A U60A" readout_number=0.111
mutation_id="A16G A71G" readout_number=0.748

Please find the next variant below.
[in] Consider the variant shown here: U27C G38A What is its recorded self-cleavage?
[out] 0.0978
